test system: Fer (mouse); experiment: phosphorylation enrichment, bacterial display (enrichment ratio); higher = better substrate or ligand; peptides without Tyr show the background;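 note: 11-residue human phosphosite peptides and single-mutation variants displayed on the E. coli surface, counted by deep sequencing, each peptide's frequency after selection divided by its frequency in the unselected input library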;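 note: frequency after pTyr selection over input frequency; kinase dosed for 20-30% of maximal phosphorylation in three min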
Lab note: anything with phosphorylation enrichment at or over 0.6 counts as Yes; the rest go in No.

RRNVYYYSYLL [PTEN_Y177_Y174N] ... No
KDYETYQSFQN [CTNND2_Y1157_P1159S] ... Yes
IGEGTYGVVFK [CDK2_Y15_YF] ... Yes
QMVGKYASSYM [AVPR2_Y124_M123K] ... No
GDYYRYLAEVA [YWHAG_Y133] ... No

Req: Is the recorded value of phosphorylation enrichment equal to or greater than 0.6 for this sequence? TYGVVYRAKDK [CDK11B_Y453]
Resp: Yes

Req: Quick one: KPMDTYFDSTR [DYNC2H1_Y2230_YF]
Resp: No
